- METHOD NOTES: Distribution coefficient, log D of the compound at pH 7.4
- Type: physicochemical
- CONDITION: octanol/water
Form field: logD (one value per entry).

CHEMICAL STRUCTURE: CCN(CC)CCNc1cc(C(F)(F)F)c(C#N)c2nc3ccccc3n12
logD: 2.51

CHEMICAL STRUCTURE: CN(C)CCCNc1cc(C(F)(F)F)c(C#N)c2nc3ccccc3n12
logD: 2.06

CHEMICAL STRUCTURE: N#Cc1c(-c2ccc(C(F)(F)F)cc2)cc(NCCN2CCCC2)n2c1nc1ccccc12
logD: 2.58

CHEMICAL STRUCTURE: N#Cc1c(-c2ccccc2)cc(NCCCN)n2c1nc1ccccc12
logD: 0.49

CHEMICAL STRUCTURE: CN(C)CCCNc1cc(-c2ccccc2)c(C#N)c2nc3ccccc3n12
logD: 1.52

CHEMICAL STRUCTURE: N#Cc1c(-c2ccc(C(F)(F)F)cc2)cc(NCCN)n2c1nc1ccccc12
logD: 1.8

CHEMICAL STRUCTURE: CN(C)CCNc1cc(-c2cccc(C(F)(F)F)c2)c(C#N)c2nc3ccccc3n12
logD: 2.45

CHEMICAL STRUCTURE: N#Cc1c(C(F)(F)F)cc(NCCN)n2c1nc1ccccc12
logD: 1.37

CHEMICAL STRUCTURE: CN(C)CCNc1cc(-c2cccc(F)c2)c(C#N)c2nc3ccccc3n12
logD: 1.5

CHEMICAL STRUCTURE: CCN(CC)CCNc1cc(-c2ccc(F)cc2)c(C#N)c2nc3ccccc3n12
logD: 1.9

CHEMICAL STRUCTURE: CCN(CC)CCCNc1cc(-c2cccc(C(F)(F)F)c2)c(C#N)c2nc3ccccc3n12
logD: 2.97

###

- METHOD NOTES: Distribution coefficient, log D of the compound at pH 7.4
- Format: physicochemical
- CONDITION: octanol/water

CHEMICAL STRUCTURE: CCNCCN(CC)c1cc(-c2ccc(C(F)(F)F)cc2)c(C#N)c2nc3ccccc3n12
logD: 3.52
//
CHEMICAL STRUCTURE: CCN(CC)CCNc1cc(-c2ccccc2)c(C#N)c2nc3ccccc3n12
logD: 1.89
//
CHEMICAL STRUCTURE: CCN(CC)CCNc1cc(-c2ccc(Cl)cc2)c(C#N)c2nc3ccccc3n12
logD: 2.54
//
CHEMICAL STRUCTURE: CCN(CC)CCNc1cc(-c2ccc(C(F)(F)F)cc2)c(C#N)c2nc3ccccc3n12
logD: 2.94
//
CHEMICAL STRUCTURE: CCNCCNc1cc(-c2ccc(C(F)(F)F)cc2)c(C#N)c2nc3ccccc3n12
logD: 2.01
//
CHEMICAL STRUCTURE: N#Cc1c(-c2ccc(C(F)(F)F)cc2)cc(NCCCN)n2c1nc1ccccc12
logD: 1.46
//
CHEMICAL STRUCTURE: N#Cc1c(-c2ccccc2)cc(NCCN)n2c1nc1ccccc12
logD: 0.83
//
CHEMICAL STRUCTURE: N#Cc1c(-c2cccc(C(F)(F)F)c2)cc(NCCCN)n2c1nc1ccccc12
logD: 1.46
//
CHEMICAL STRUCTURE: CCN(CC)CCCNc1cc(C(F)(F)F)c(C#N)c2nc3ccccc3n12
logD: 2.54
//
CHEMICAL STRUCTURE: N#Cc1c(-c2ccc(C(F)(F)F)cc2)cc(NCCN2CCOCC2)n2c1nc1ccccc12
logD: 3.72
//
CHEMICAL STRUCTURE: CCN(CC)CCCNc1cc(-c2cccc(F)c2)c(C#N)c2nc3ccccc3n12
logD: 2.02
//
CHEMICAL STRUCTURE: CN(C)CCNc1cc(-c2ccc(C(F)(F)F)cc2)c(C#N)c2nc3ccccc3n12
logD: 2.45
//
CHEMICAL STRUCTURE: CN(C)CCCNc1cc(-c2ccc(F)cc2)c(C#N)c2nc3ccccc3n12
logD: 1.45
//
CHEMICAL STRUCTURE: CN(C)CCCNc1cc(-c2ccc(C(F)(F)F)cc2)c(C#N)c2nc3ccccc3n12
logD: 2.49
//
CHEMICAL STRUCTURE: CN(C)CCNc1cc(-c2ccccc2)c(C#N)c2nc3ccccc3n12
logD: 1.48
//
CHEMICAL STRUCTURE: N#Cc1c(-c2cccc(C(F)(F)F)c2)cc(NCCN)n2c1nc1ccccc12
logD: 1.8
//
CHEMICAL STRUCTURE: CN(C)CCCNc1cc(-c2cccc(C(F)(F)F)c2)c(C#N)c2nc3ccccc3n12
logD: 2.49
//
CHEMICAL STRUCTURE: CCN(CC)CCNc1cc(-c2cccc(F)c2)c(C#N)c2nc3ccccc3n12
logD: 1.99
//
CHEMICAL STRUCTURE: CCN(CC)CCCNc1cc(-c2ccc(C(F)(F)F)cc2)c(C#N)c2nc3ccccc3n12
logD: 2.97
//
CHEMICAL STRUCTURE: CCN(CC)CCNc1cc(-c2cccc(C(F)(F)F)c2)c(C#N)c2nc3ccccc3n12
logD: 2.94

###

- METHOD NOTES: Metabolic stability in rat liver microsomes assessed as degradation half life after 60 mins by LC-MS analysis
- Format: ADME, Microsome

CHEMICAL STRUCTURE: Cl.N#Cc1c(-c2ccc(C(F)(F)F)cc2)cc(NCCN2CCOCC2)n2c1nc1ccccc12
half-life [min]: 16
--
CHEMICAL STRUCTURE: Cl.N#Cc1c(-c2ccc(C(F)(F)F)cc2)cc(NCCCN2CCOCC2)n2c1nc1ccccc12
half-life [min]: 7.4
--
CHEMICAL STRUCTURE: Cl.N#Cc1c(-c2ccc(C(F)(F)F)cc2)cc(NCCN2CCCCC2)n2c1nc1ccccc12
half-life [min]: 64.2
--
CHEMICAL STRUCTURE: Cl.N#Cc1c(-c2ccc(C(F)(F)F)cc2)cc(NCCN2CCCC2)n2c1nc1ccccc12
half-life [min]: 67.2
--
CHEMICAL STRUCTURE: CCN(CC)CCNc1cc(-c2ccc(C(F)(F)F)cc2)c(C#N)c2nc3ccccc3n12.Cl.Cl
half-life [min]: 24.8
--
CHEMICAL STRUCTURE: CCNCCNc1cc(-c2ccc(C(F)(F)F)cc2)c(C#N)c2nc3ccccc3n12.Cl.Cl
half-life [min]: 284

###

- Tested on: Rattus norvegicus
- METHOD NOTES: Cmax in fasted Sprague-Dawley rat assessed as 1-(2-Diethylaminoethylamino)-3-[4-(trifluoromethyl)phenyl]-pyrido[1,2-a]benzimidazole-4-carbonitrile at 20 mg/kg, po after 48 hrs by LC-MS analysis
- Assay type: ADME, organism-based
- Parameters: dose 20 mg/kg, route oral
- CONDITION: in vivo

CHEMICAL STRUCTURE: CCN(CC)CCNc1cc(-c2ccc(C(F)(F)F)cc2)c(C#N)c2nc3ccccc3n12.Cl.Cl
Cmax / nM: 380

###

- METHOD NOTES: Metabolic stability in mouse liver microsomes assessed as intrinsic clearance per mg protein after 60 mins by LC-MS analysis
- Assay type: ADME, Microsome
Criterion: microsomal CLint strictly under 70 µL/min/mg. Met: Y. Not met: N.

CHEMICAL STRUCTURE: Cl.N#Cc1c(-c2ccc(C(F)(F)F)cc2)cc(NCCN2CCCC2)n2c1nc1ccccc12
LABEL CLASS: Y
//
CHEMICAL STRUCTURE: CCNCCNc1cc(-c2ccc(C(F)(F)F)cc2)c(C#N)c2nc3ccccc3n12.Cl.Cl
LABEL CLASS: Y
//
CHEMICAL STRUCTURE: Cl.N#Cc1c(-c2ccc(C(F)(F)F)cc2)cc(NCCN2CCOCC2)n2c1nc1ccccc12
LABEL CLASS: Y
//
CHEMICAL STRUCTURE: Cl.N#Cc1c(-c2ccc(C(F)(F)F)cc2)cc(NCCCN2CCOCC2)n2c1nc1ccccc12
LABEL CLASS: N
//
CHEMICAL STRUCTURE: Cl.N#Cc1c(-c2ccc(C(F)(F)F)cc2)cc(NCCN2CCCCC2)n2c1nc1ccccc12
LABEL CLASS: Y

###

- METHOD NOTES: Distribution coefficient, log D of the compound at pH 7.4
- Type: physicochemical
- CONDITION: octanol/water
# maps each entry to its logD

CHEMICAL STRUCTURE: CCN(CC)CCCNc1cc(-c2ccccc2)c(C#N)c2nc3ccccc3n12
logD: 2

CHEMICAL STRUCTURE: CN(C)CCNc1cc(C(F)(F)F)c(C#N)c2nc3ccccc3n12
logD: 2.01

CHEMICAL STRUCTURE: N#Cc1c(-c2ccc(C(F)(F)F)cc2)cc(NCCCN2CCOCC2)n2c1nc1ccccc12
logD: 3.79

CHEMICAL STRUCTURE: CN(C)CCNc1cc(-c2ccc(F)cc2)c(C#N)c2nc3ccccc3n12
logD: 1.41

CHEMICAL STRUCTURE: CN(C)CCCNc1cc(-c2cccc(F)c2)c(C#N)c2nc3ccccc3n12
logD: 1.54

CHEMICAL STRUCTURE: CN(C)CCCNc1cc(-c2ccc(Cl)cc2)c(C#N)c2nc3ccccc3n12
logD: 2.09

CHEMICAL STRUCTURE: CCN(CC)CCCNc1cc(-c2ccc(F)cc2)c(C#N)c2nc3ccccc3n12
logD: 1.93

CHEMICAL STRUCTURE: N#Cc1c(-c2ccc(C(F)(F)F)cc2)cc(NCCN2CCCCC2)n2c1nc1ccccc12
logD: 3.78

CHEMICAL STRUCTURE: CN(C)CCNc1cc(-c2ccc(Cl)cc2)c(C#N)c2nc3ccccc3n12
logD: 2.05

CHEMICAL STRUCTURE: CCN(CC)CCCNc1cc(-c2ccc(Cl)cc2)c(C#N)c2nc3ccccc3n12
logD: 2.57
